molecular target: human CB2 (Homo sapiens, UniProt P34972); test: Radioligand binding assay with [3H]CP-55,940, HEK293 cells expressing hCB2; parameters: expressed in transfected cells; host or cells: HEK293 cells; conditions: human CB2, [3H]CP-55,940 radioligand; read-out: CB2 affinity Ki
Sequence (P34972 whole entry): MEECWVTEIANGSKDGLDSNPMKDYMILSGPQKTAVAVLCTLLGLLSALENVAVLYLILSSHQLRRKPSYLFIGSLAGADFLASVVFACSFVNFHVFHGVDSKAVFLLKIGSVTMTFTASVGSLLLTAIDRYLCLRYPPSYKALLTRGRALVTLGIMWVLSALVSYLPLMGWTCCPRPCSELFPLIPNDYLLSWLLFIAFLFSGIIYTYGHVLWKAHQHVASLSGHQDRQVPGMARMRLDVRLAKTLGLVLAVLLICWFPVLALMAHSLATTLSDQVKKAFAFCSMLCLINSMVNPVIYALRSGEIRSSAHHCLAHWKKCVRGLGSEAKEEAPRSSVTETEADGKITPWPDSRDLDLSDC

compound | Ki (µM)
Cc1ccc(CN(Cc2ccco2)S(=O)(=O)c2cnn(-c3ccccc3F)c2)s1 | 5.2
C=CCC1(S(=O)(=O)NC(=O)c2ccc(N3CCCCC3)c(S(=O)(=O)N3CCCCCC3)c2)CC1 | 0.85
O=C1Cc2cc(NC(=O)C(=O)NC(CCc3ccccc3)c3ccccc3)ccc2N1 (centres unmarked) | 2.85
O=C(C1CC1)N1CCc2ccc(S(=O)(=O)NC(CCc3ccccc3)c3ccccn3)cc21 (centres unmarked) | 14.3
CCCC(NS(=O)(=O)C1CC2(CC2)C1)C(=O)Nc1cccc(N2CCCC2)c1 (centres unmarked) | 4.2
CC1(C)NC(=O)N(CCCNC(=O)NCc2oc3ccc(Cl)cc3c2-c2ccccc2)C1=O | 12.2
O=S(=O)(NC1CC1)c1ccc(S(=O)(=O)NC(CCc2ccccc2)c2ccccn2)cc1 (centres unmarked) | 4
Cc1cc(Cl)cn2cc(CNC(=O)C(=O)NC(COc3ccccc3)c3ccccc3)nc12 (centres unmarked) | 12.8

---

Parameter: pKi. Scope: all listed entries.
molecular target: human CB2 (Homo sapiens); test: Radioligand binding assay with [3H]CP-55,940, HEK293 cells expressing hCB2; parameters: expressed in transfected cells; host or cells: HEK293 cells; details: human CB2, [3H]CP-55,940 radioligand; read-out: CB2 affinity Ki
pKi: −log10 of the molar value.

compound | pKi
Cc1ccc(NC(=O)N2CCC(O)(c3ccccc3F)C2)cc1S(=O)(=O)N1CCCCCC1 (stereo not drawn) | 4.98
O=S(=O)(C1=Cc2cc(Cl)ccc2OC1)N(CCc1ccccn1)Cc1cccnc1 | 5.28
COc1ccc(-c2nccc(N3CCCC(Cc4ccc(N)nc4)C3)n2)cc1 (stereo not drawn) | 4.87
O=C(Nc1ccn(C2CCCCC2)n1)C(=O)NC(CCc1ccccc1)c1ccccc1 (stereo not drawn) | 6.55
O=C(c1ccc(F)cc1)c1cc(Cl)ccc1NS(=O)(=O)c1cnn(C2CCCCC2)c1 | 5.17
O=C(NCC1(Cc2ccccc2)CC=CCC1)C(=O)Nc1c(F)ccc(Br)c1F (stereo not drawn) | 5.92

---

target: rat CB1 receptor (Rattus norvegicus, UniProt P20272); construct: membrane preparations from rat brain; from tissue; host or cells: rat brain membranes; test: Radioligand binding assay with [3H]CP-55,940, rat brain membranes; conditions: rat CB1, [3H]CP-55,940; estimates from 3-point assays; read-out: CB1 affinity Ki (asterisk: estimate from 3-point assays)
Sequence (P20272 whole entry): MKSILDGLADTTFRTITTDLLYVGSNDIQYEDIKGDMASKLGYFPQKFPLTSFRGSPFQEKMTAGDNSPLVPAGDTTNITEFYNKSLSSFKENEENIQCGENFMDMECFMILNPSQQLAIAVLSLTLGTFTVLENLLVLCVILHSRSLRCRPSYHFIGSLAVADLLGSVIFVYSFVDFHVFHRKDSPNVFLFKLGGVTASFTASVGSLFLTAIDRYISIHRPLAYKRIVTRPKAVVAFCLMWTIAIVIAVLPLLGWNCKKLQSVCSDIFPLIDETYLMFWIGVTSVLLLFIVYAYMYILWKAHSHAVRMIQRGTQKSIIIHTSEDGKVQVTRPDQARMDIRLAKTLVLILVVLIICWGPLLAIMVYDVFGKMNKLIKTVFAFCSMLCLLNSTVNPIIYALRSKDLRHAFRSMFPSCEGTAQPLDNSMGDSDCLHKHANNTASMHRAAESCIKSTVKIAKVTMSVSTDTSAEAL
pKi: −log10 of the molar value.
property.measured: pKi

molecule | measured.on | prefix.operator | observed
N#Cc1ccc(C(=O)NCCN(Cc2ccccc2)C(=O)c2cc(C(F)(F)F)cs2)s1 | rat CB1 receptor (Rattus norvegicus, UniProt P20272) | = | 5.00
O=C(C1CC1)N1CCc2ccc(S(=O)(=O)NC(CCc3ccccc3)c3ccccn3)cc21 (stereo not drawn) | rat CB1 receptor (Rattus norvegicus, UniProt P20272) | = | 4.90
O=C(c1ccc(F)cc1)c1cc(Cl)ccc1NS(=O)(=O)c1cnn(C2CCCCC2)c1 | rat CB1 receptor (Rattus norvegicus, UniProt P20272) | < | 5.15
